Test system: CSNK1D;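 also: KINOMEscan kinase panel screen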
study.conditions: concentration: 1 μM,replicates: in singlicate; n = 1

# compound, %Inh, %
rows = [
    ("CCNCC(Cc1ccccc1)NC(=O)c1cc(Br)c(-c2ccnc3[nH]ccc23)s1.Cl.Cl (stereo not drawn)", 32),
    ("C[C@@H](Oc1cc(-n2cnc3ccc(-c4ccncc4)cc32)sc1C(N)=O)c1ccccc1Cl", 28),
    ("CC(=O)c1c(-c2ccncc2)[nH]c(-c2ccncc2)c1C", 93.7),
    ("Cc1ccn2nc(-c3ccc(F)cc3)c(-c3ccncc3)c2c1.Cl", 96.3),
    ("CSc1nccc(-c2c(-c3ccc(F)cc3)ncn2CCCN2CCOCC2)n1.Cl", 54),
    ("Cc1cccc2c(-c3ccncc3)c(-c3ccc(F)cc3)nn12.Cl", 93.3),
    ("CCN1CCN(CCCC(=O)Nc2n[nH]c3nc(-c4ccc(O)cc4)c(Br)cc23)CC1", 0),
    ("Cc1cccc(-c2nc(Nc3ccncc3)c3sccc3n2)n1", 90),
    ("O=C(Nc1cccc(C(F)(F)F)c1)c1cccc(Oc2ccc3nccn3n2)c1", 11),
    ("COC(=O)c1cccc(NC(=O)NC2CCN(c3ccnc(NCc4ccc(F)cc4)n3)CC2)c1", 4),
    ("Cn1ccc2ncnc(Oc3ccc(NC(=O)Nc4cccc(C(F)(F)F)c4)c(Cl)c3)c21", 0),
    ("C[C@@H]1CCN(C(=O)N2CCCC2)C[C@@H]1N(C)c1ncnc2[nH]ccc12", 0),
    ("CCOC(=O)N1CCC(n2cnc(-c3ccc(F)cc3)c2-c2ccnc(N)n2)CC1", 94.8),
    ("CC(C(=O)NC1CCN(c2ccnc(Nc3ccc(F)cc3)n2)C1)c1ccc(Cl)cc1 (stereo not drawn)", 0),
    ("COc1cc2ncn(-c3cc(OCC4CCCCC4)c(C(N)=O)s3)c2cc1OC", 10),
    ("CCn1c(-c2nonc2N)nc2cncc(CNC3CCNCC3)c21.Cl", 26),
    ("CN1CCN(CCNc2nc3cc(Oc4ccc(NC(=O)Nc5cc(C(F)(F)F)ccc5F)cc4)ccc3[nH]2)CC1.Cl.Cl", 0),
    ("Cc1ccc(C(=O)Nc2ccc(Oc3ccc4nc(NC(=O)C5CC5)cn4c3)c(F)c2)c(=O)n1-c1ccccc1", 0),
    ("CCn1c(-c2nonc2N)nc2cncc(Br)c21", 13),
    ("FC(F)(F)c1cc(Br)cc(Nc2nccc(-c3cnn4ncccc34)n2)c1", 91.9),
    ("C[C@@H](Oc1cc(-n2cnc3cc(-c4ccncc4)ccc32)sc1C(N)=O)c1ccccc1Cl", 17),
    ("CS(=O)(=O)Nc1ccc(-c2ccnc3[nH]ccc23)cc1", 20),
    ("Cc1nnc(-c2ccc3occ(-c4ccc(S(C)=O)cc4)c3n2)o1 (stereo not drawn)", 0),
    ("CS(=O)c1ccc(-c2coc3ccc(-c4n[nH]c(=O)o4)cc23)cc1 (stereo not drawn)", 0),
    ("COc1cccc(C2=C(Nc3cccc(Cl)c3)C(=O)NC2=O)c1", 10),
    ("Cc1ccc(CC(=O)N2CCc3cc(-c4cn(C)c5ncnc(N)c45)ccc32)cc1", 16),
    ("Cn1ccc2ncnc(Oc3ccc(NC(=O)Nc4cncc(C(F)(F)F)c4)c(Cl)c3)c21", 0),
    ("CS(=O)(=O)c1cccc(CNc2nc(Nc3ccc4c(c3)[C@@H]3C[C@@H]4CNC3=O)ncc2C(F)(F)F)c1", 0),
    ("CCCC(=O)Nc1n[nH]c2ncccc12", 0),
    ("O=C(Nc1n[nH]c2cc(-c3ccco3)ccc12)C1CC1", 0),
    ("Cn1ccc2ncnc(Oc3ccc(NC(=O)Nc4ccnc(C(F)(F)F)c4)c(Cl)c3)c21", 0),
    ("Cl.Nc1n[nH]c2cc(-c3ccccn3)ccc12", 0),
    ("O=C(Nc1cccc(Oc2ccc3nccn3n2)c1)Nc1cccc(C(F)(F)F)c1", 2),
    ("COc1cccc(OC)c1C(=O)Nc1cccc(-c2nn3ccccc3c2-c2ccnc(Nc3cccc(F)c3)n2)c1", 9),
    ("Cn1ccc2ncnc(Oc3ccc(NC(=O)Nc4cc(C(C)(C)C)on4)c(Cl)c3)c21", 6),
    ("CC(=O)Nc1nc2cnc(Nc3cc(NC(=O)c4cccc(CC(C)(C)C#N)c4)ccc3C)nc2s1", 6),
]
